System: SNB-75 CNS
Experiment: NCI-60 one-dose screen, 48 h
Details: 10 µM
This is part of a sample that, as a whole, favours compounds with a hit. Of some 83,000 tested, about 20% had one in any assay. Calls of active or inactive are those of the source. Rule for the calls: active = growth percent below 10; inactive = the rest.
Labels: 1 for active, 0 for inactive

Molecule	Assigned class
C=C1C(=O)O[C@H]2[C@H]1CC/C(COC(=O)NCc1ccccc1OC)=C\CC[C@@]1(C)O[C@@H]21	0
O=C(Nc1ccc(Cl)c(Cl)c1)NS(=O)(=O)c1cnccc1Oc1ccc(F)cc1	0
COc1ccc(-c2c(-c3cc(OC)c4c(c3)OCO4)noc2N)cc1	0
CC1CCC(C)N(C)C1 (stereo unspecified)	0
Clc1ccccc1-c1nc2ccccc2[nH]1	0
O=c1[nH]c(NCc2ccccc2)nc2nc(Nc3ccc(NC(=S)Nc4ccccc4)cc3)nc(-c3ccc(O)cc3O)c12	0
COc1ccccc1CNCCCN1C(=O)c2ccc3c4c(ccc(c24)C1=O)C(=O)N(CCCNCCCCNCCCN)C3=O	1
O=C(CCl)N(C1CCCCC1)C1CCCCC1	0
Oc1ccccc1/C=N/NC(=S)NC1CC2C=CC1C2 (stereo unspecified)	0
NC(=S)N/N=C1\CCCC(C(F)(F)F)C1 (stereo unspecified)	0
OCc1ncc(-c2ccccc2)s1	0
